assay procedure: Part B (MAD): plasma PK of Formula (IIa) and its metabolites after once-daily oral Formula (IIa) for 7 days, fasted
Assay type: in vivo, human
assay conditions: human, in vivo, Day 1, 200-900 mg Formula (IIa) QD; read-out: mean AUC0-24 range across dose levels
recorded metric: AUC(0-t)

Q) Which AUC(0-t) value belongs to CO[C@H]1C(OP(=O)(OC[C@H]2O[C@@H](n3cnc4c(N)ncnc43)CC2O)SCOC(=O)OC(C)C)[C@@H](CO)O[C@H]1n1ccc(=O)[nH]c1=O (stereo partly shown) [Formula (IIa)] ?
A) 0.512 to 7.91 ng·h/mL

* * *

assay procedure: Part B (MAD): plasma PK of Formula (IIa) and its metabolites after once-daily oral Formula (IIa) for 7 days, fasted
Assay type: in vivo, human
assay conditions: human, in vivo, po, 200 mg, 200 mg Formula (IIa) QD oral, fasted, Day 7, plasma, arithmetic mean (CV %); footnote: AUC0-24 = AUC0-t on Day 7; read-out: AUC0-24
recorded metric: AUC(0-t)
Provide the measurement as a number trailed by its unit.

Q) Which AUC(0-t) value belongs to CO[C@H]1C(OP(=O)(OC[C@H]2O[C@@H](n3cnc4c(N)ncnc43)CC2O)SCOC(=O)OC(C)C)[C@@H](CO)O[C@H]1n1ccc(=O)[nH]c1=O (stereo partly shown) [Formula (IIa)] ?
A) 0.77 ng·h/mL

* * *

assay procedure: Part B (MAD): plasma PK of Formula (IIa) and its metabolites after once-daily oral Formula (IIa) for 7 days, fasted
Type: in vivo, human
assay conditions: human, in vivo, po, 900 mg, 900 mg Formula (IIa) QD oral, fasted, Day 1, plasma, arithmetic mean (CV %); read-out: AUC0-t
recorded metric: AUC(0-t) (ng·h/mL)
Quick note: give the figure in ng·h/mL, leave out the unit.

Q) Which AUC(0-t) value belongs to CO[C@H]1C(OP(=O)(OC[C@H]2O[C@@H](n3cnc4c(N)ncnc43)CC2O)SCOC(=O)OC(C)C)[C@@H](CO)O[C@H]1n1ccc(=O)[nH]c1=O (stereo partly shown) [Formula (IIa)] ?
A) 5.31

* * *

assay procedure: Part A (SAD): plasma PK of Formula (IIa) and its metabolites after a single oral dose of Formula (IIa), fed or fasted
Format: in vivo, human
assay conditions: human, in vivo, po, single oral Formula (IIa), subjects dosed under fasted conditions; read-out: Individual Tmax range
recorded metric: Tmax

Q) Which Tmax value belongs to CO[C@H]1C(OP(=O)(OC[C@H]2O[C@@H](n3cnc4c(N)ncnc43)CC2O)SCOC(=O)OC(C)C)[C@@H](CO)O[C@H]1n1ccc(=O)[nH]c1=O (stereo partly shown) [Formula (IIa)] ?
A) 1 to 2.5 h

* * *

assay procedure: Part A (SAD): plasma PK of Formula (IIa) and its metabolites after a single oral dose of Formula (IIa), fed or fasted
Format: in vivo, human
assay conditions: human, in vivo, po, 200 mg, single oral 200 mg Formula (IIa), fed, plasma, N=1; read-out: Tmax
recorded metric: Tmax (h)
Quick note: give the figure in h, leave out the unit.

Q) Which Tmax value belongs to CO[C@H]1C(OP(=O)(OC[C@H]2O[C@@H](n3cnc4c(N)ncnc43)CC2O)SCOC(=O)OC(C)C)[C@@H](CO)O[C@H]1n1ccc(=O)[nH]c1=O (stereo partly shown) ?
A) 2

* * *

assay procedure: Part A (SAD): plasma PK of Formula (IIa) and its metabolites after a single oral dose of Formula (IIa), fed or fasted
Assay type: in vivo, human
assay conditions: human, in vivo, po, 800 mg, single oral 800 mg Formula (IIa), fasted, plasma, N=1; read-out: AUC0-24
recorded metric: AUC(0-t) (ng·h/mL)
Quick note: give the figure in ng·h/mL, leave out the unit.

Q) Which AUC(0-t) value belongs to CO[C@H]1C(OP(=O)(OC[C@H]2O[C@@H](n3cnc4c(N)ncnc43)CC2O)SCOC(=O)OC(C)C)[C@@H](CO)O[C@H]1n1ccc(=O)[nH]c1=O (stereo partly shown) [Formula (IIa)] ?
A) 0.809

* * *

assay procedure: Part A (SAD): plasma PK of Formula (IIa) and its metabolites after a single oral dose of Formula (IIa), fed or fasted
Assay type: in vivo, human
assay conditions: human, in vivo, po, 400 mg, single oral 400 mg Formula (IIa), fed, plasma, N=1
recorded metric: Cmax (ng/mL)
Quick note: give the figure in ng/mL, leave out the unit.

Q) Which Cmax value belongs to CO[C@H]1C(OP(=O)(OC[C@H]2O[C@@H](n3cnc4c(N)ncnc43)CC2O)SCOC(=O)OC(C)C)[C@@H](CO)O[C@H]1n1ccc(=O)[nH]c1=O (stereo partly shown) ?
A) 0.574

* * *

assay procedure: Part B (MAD): plasma PK of Formula (IIa) and its metabolites after once-daily oral Formula (IIa) for 7 days, fasted
Format: in vivo, human
assay conditions: human, in vivo, po, 900 mg, 900 mg Formula (IIa) QD oral, fasted, Day 7, plasma, median (min, max); read-out: Tmax
recorded metric: Tmax (h)
Quick note: give the figure in h, leave out the unit.

Q) Which Tmax value belongs to CO[C@H]1C(OP(=O)(OC[C@H]2O[C@@H](n3cnc4c(N)ncnc43)CC2O)SCOC(=O)OC(C)C)[C@@H](CO)O[C@H]1n1ccc(=O)[nH]c1=O (stereo partly shown) ?
A) 1.25

* * *

assay procedure: Part B (MAD): plasma PK of Formula (IIa) and its metabolites after once-daily oral Formula (IIa) for 7 days, fasted
Assay type: in vivo, human
assay conditions: human, in vivo, po, 400 mg, 400 mg Formula (IIa) QD oral, fasted, Day 7, plasma, arithmetic mean (CV %); read-out: t1/2 (converted)
recorded metric: half-life (min)
Quick note: give the figure in min, leave out the unit.

Q) Which half-life value belongs to CO[C@H]1C(OP(=O)(OC[C@H]2O[C@@H](n3cnc4c(N)ncnc43)CC2O)SCOC(=O)OC(C)C)[C@@H](CO)O[C@H]1n1ccc(=O)[nH]c1=O (stereo partly shown) [Formula (IIa)] ?
A) 41

* * *

assay procedure: Part A (SAD): plasma PK of Formula (IIa) and its metabolites after a single oral dose of Formula (IIa), fed or fasted
Type: in vivo, human
assay conditions: human, in vivo, po, 800 mg, single oral 800 mg Formula (IIa), fed, plasma, N=1
recorded metric: Cmax (ng/mL)
Quick note: give the figure in ng/mL, leave out the unit.

Q) Which Cmax value belongs to CO[C@H]1C(OP(=O)(OC[C@H]2O[C@@H](n3cnc4c(N)ncnc43)CC2O)SCOC(=O)OC(C)C)[C@@H](CO)O[C@H]1n1ccc(=O)[nH]c1=O (stereo partly shown) [Formula (IIa)] ?
A) 0.486

* * *

assay procedure: Part A (SAD): plasma PK of Formula (IIa) and its metabolites after a single oral dose of Formula (IIa), fed or fasted
Assay type: in vivo, human
assay conditions: human, in vivo, po, 200 mg, single oral 200 mg Formula (IIa), fed, plasma, N=1; read-out: AUC0-t
recorded metric: AUC(0-t) (ng·h/mL)
Quick note: give the figure in ng·h/mL, leave out the unit.

Q) Which AUC(0-t) value belongs to CO[C@H]1C(OP(=O)(OC[C@H]2O[C@@H](n3cnc4c(N)ncnc43)CC2O)SCOC(=O)OC(C)C)[C@@H](CO)O[C@H]1n1ccc(=O)[nH]c1=O (stereo partly shown) [Formula (IIa)] ?
A) 0.0653

* * *

assay procedure: Part B (MAD): plasma PK of Formula (IIa) and its metabolites after once-daily oral Formula (IIa) for 7 days, fasted
Assay type: in vivo, human
assay conditions: human, in vivo, po, 400 mg, 400 mg Formula (IIa) QD oral, fasted, Day 1, plasma, arithmetic mean (CV %); read-out: AUC0-t
recorded metric: AUC(0-t) (ng·h/mL)
Quick note: give the figure in ng·h/mL, leave out the unit.

Q) Which AUC(0-t) value belongs to CO[C@H]1C(OP(=O)(OC[C@H]2O[C@@H](n3cnc4c(N)ncnc43)CC2O)SCOC(=O)OC(C)C)[C@@H](CO)O[C@H]1n1ccc(=O)[nH]c1=O (stereo partly shown) ?
A) 3.27

* * *

assay procedure: Part B (MAD): plasma PK of Formula (IIa) and its metabolites after once-daily oral Formula (IIa) for 7 days, fasted
Assay type: in vivo, human
assay conditions: human, in vivo, po, 400 mg, 400 mg Formula (IIa) QD oral, fasted, Day 1, plasma, arithmetic mean (CV %); read-out: t1/2 (converted)
recorded metric: half-life (h)
Quick note: give the figure in h, leave out the unit.

Q) Which half-life value belongs to CO[C@H]1C(OP(=O)(OC[C@H]2O[C@@H](n3cnc4c(N)ncnc43)CC2O)SCOC(=O)OC(C)C)[C@@H](CO)O[C@H]1n1ccc(=O)[nH]c1=O (stereo partly shown) [Formula (IIa)] ?
A) 1.05

* * *

assay procedure: Part A (SAD): plasma PK of Formula (IIa) and its metabolites after a single oral dose of Formula (IIa), fed or fasted
Type: in vivo, human
assay conditions: human, in vivo, po, 400 mg, single oral 400 mg Formula (IIa), fasted, plasma, N=1; read-out: Tmax
recorded metric: Tmax (h)
Quick note: give the figure in h, leave out the unit.

Q) Which Tmax value belongs to CO[C@H]1C(OP(=O)(OC[C@H]2O[C@@H](n3cnc4c(N)ncnc43)CC2O)SCOC(=O)OC(C)C)[C@@H](CO)O[C@H]1n1ccc(=O)[nH]c1=O (stereo partly shown) ?
A) 2.5

This collection of values is drawn from patent US20190046552A1.
